Measured Target: TaTT (transaminase from Thermobaculum terrenum) (Thermobaculum terrenum, UniProt D1CCW1, S114R)
Construct: gene ilvE; N-terminal His6TEV-tag, expressed in E. coli BL21(DE3)pLys; tag cut by TEV for crystals (309 visible residues, 5 N-terminal and 3 C-terminal residues invisible); functional dimer
Sequence (D1CCW1 entry or part of it S114R): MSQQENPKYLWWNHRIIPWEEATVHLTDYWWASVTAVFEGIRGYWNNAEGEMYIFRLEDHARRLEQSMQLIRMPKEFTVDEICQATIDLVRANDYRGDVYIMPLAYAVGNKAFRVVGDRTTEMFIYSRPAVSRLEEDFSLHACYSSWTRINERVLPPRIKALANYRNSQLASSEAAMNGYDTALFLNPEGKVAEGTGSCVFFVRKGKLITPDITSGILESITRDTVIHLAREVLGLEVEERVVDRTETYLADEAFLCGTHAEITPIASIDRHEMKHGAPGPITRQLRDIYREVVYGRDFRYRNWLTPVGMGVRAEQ
Assay Explanation: pre-steady-state half-reaction of the PLP form, aldimine decrease at […] nm
Assay type: biochemical
Reported Conditions: mO1; 50 mM CHES pH 9.0, 40 °C; no amino acceptor; constant from kobs vs. substrate; read-out: pH 9.0, CHES buffer, 40°C / KD, / mM
Experimental Endpoint: Kd (mM)
Express the result in mM but write the number alone.

Field request: Kd | item: C[C@@H](N)c1ccccc1 [R-PEA, (R)-(+)-1-phenylethylamine]
3.3

###

Measured Target: TaTT (transaminase from Thermobaculum terrenum) (Thermobaculum terrenum, UniProt D1CCW1, G40V/Y100F)
Construct: gene ilvE; N-terminal His6TEV-tag, expressed in E. coli BL21(DE3)pLys; tag cut by TEV for crystals (309 visible residues, 5 N-terminal and 3 C-terminal residues invisible); functional dimer
Sequence (D1CCW1 entry or part of it G40V/Y100F): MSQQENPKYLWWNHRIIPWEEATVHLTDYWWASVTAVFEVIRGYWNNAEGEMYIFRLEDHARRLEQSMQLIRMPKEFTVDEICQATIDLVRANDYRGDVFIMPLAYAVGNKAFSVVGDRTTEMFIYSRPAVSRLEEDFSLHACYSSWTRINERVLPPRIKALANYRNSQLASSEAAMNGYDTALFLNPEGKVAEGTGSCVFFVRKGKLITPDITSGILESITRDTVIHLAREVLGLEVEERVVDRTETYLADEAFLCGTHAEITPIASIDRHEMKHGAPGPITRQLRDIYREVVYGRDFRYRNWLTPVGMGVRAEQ
Assay Explanation: pre-steady-state half-reaction of the PLP form, aldimine decrease at […] nm
Type: biochemical
Reported Conditions: mP2; 50 mM CHES pH 9.0, 40 °C; no amino acceptor; constant from kobs vs. substrate; read-out: pH 9.0, CHES buffer, 40°C / KD, / mM
Experimental Endpoint: Kd (mM)
Express the result in mM but write the number alone.

Field request: Kd | item: C[C@@H](N)c1ccccc1 [R-PEA, (R)-(+)-1-phenylethylamine]
13
